Below, each of the molecules is paired with its reported growth inhibition value.
Assay: NCI Yeast Anticancer Drug Screen. Data for the wt1 strain (AID 149);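 also: 0% = growth of vehicle-treated wt1 cultures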
Details: S. cerevisiae wt1 strain (SPY 50644) growth inhibition; at 100.0 µM; stronger effect = higher value
The panel holds about 79,000 compounds, 15% with a hit somewhere; the sample as a whole holds those more often.
Hi! Could you send only the number? It should be in %, unit omitted.

These recorded examples may help you get a feel for the data.
>>> readout_value("COc1cc(C2SCC(=O)N2c2ccc(-c3ccc(-n4c(-c5ccccc5)nc5ccccc5c4=O)cc3)cc2)cc(OC)c1OC (configuration not stated)")
-8
>>> readout_value("O=S(=O)(CCCl)c1ccccc1Cl")
98

Query :: I am curious: what growth inhibition value has been reported for Clc1ccccc1C1OC1c1ccccc1Cl (configuration not stated) ?
Result :: -26

Query :: For the molecule `N#CN1C2CCC1CC(=O)C2` , what growth inhibition is on record?
Result :: -35

Query :: Would you mind telling me what growth inhibition value was observed for CCOC(=O)[C@H]1Nc2ccccc2C2c3ccccc3CC21 (some centres not stated) ?
Result :: 54

Query :: Please report the recorded growth inhibition for CC(O)C(O)C(O)C(/C=N\Nc1ccccc1)=N/Nc1ccccc1 (configuration not stated) .
Result :: 96
